- System: Bel-7402
- Test Details: Cytotoxicity against human Bel7402 cells after 72 hrs by MTT assay
- Type: functional, cell-based
- Condition Details: Bel-7402, 72 h
Reported Property: IC50
Answer with the figure and its unit, nothing else.

Worked cases, IC50 given:
smiles_input=CNC(=O)c1cc(Oc2ccc(NC(=O)Nc3ccc(Cl)c(C(F)(F)F)c3)cc2)ccn1 reported_property=IC50 test_value="5.8 µM"
smiles_input=O=C(Nc1ccc(-n2ncc3ccccc32)cc1)Nc1ccc(Cl)c(C(F)(F)F)c1 reported_property=IC50 test_value="10.6 µM"
smiles_input=O=C(Nc1ccc(-n2ncc3c(Cl)cccc32)cc1)Nc1ccc(Cl)c(C(F)(F)F)c1 reported_property=IC50 test_value="2 µM"
smiles_input=O=C(Nc1ccc(-n2ncc3c(Cl)cccc32)cc1)Nc1ccc(C(F)(F)F)cc1 reported_property=IC50 test_value="8 µM"

Query: Request: IC50, test system Bel-7402, entry O=C(Nc1ccc(-n2ncc3ccncc32)cc1)Nc1ccc(Cl)c(C(F)(F)F)c1
Result: 4 µM

Query: Another compound to look at: Cc1cccc2c1cnn2-c1ccc(NC(=O)Nc2ccc(Cl)c(C(F)(F)F)c2)cc1
Result: 6.7 µM

Query: Further, for O=C(Nc1ccc(-n2ncc3c(C(F)(F)F)cccc32)cc1)Nc1ccc(Cl)c(C(F)(F)F)c1 ?
Result: 16 µM

Query: Now give it for O=C(Nc1ccc(-n2ncc3cccnc32)cc1)Nc1ccc(Cl)c(C(F)(F)F)c1 too.
Result: 20.9 µM

Query: Next record, please: O=C(Nc1ccc(-n2ncc3c(F)cccc32)cc1)Nc1ccc(Cl)c(C(F)(F)F)c1
Result: 16 µM

###

- Tested on: SGC-7901
- Test Details: Cytotoxicity against human SGC7901 cells after 72 hrs by MTT assay
- Type: functional, cell-based
- Condition Details: SGC-7901, 72 h
IC50 reference
The answer is to be given in µM; state only the numeric part.

These recorded examples may help you get a feel for the data.
smiles_input=COc1cccc2c1cnn2-c1ccc(NC(=O)Nc2ccc(Cl)c(C(F)(F)F)c2)cc1 test_value=29.8
smiles_input=Cc1cccc2c1cnn2-c1ccc(NC(=O)Nc2ccc(Cl)c(C(F)(F)F)c2)cc1 test_value=14.2

Query: Value lookup for IC50; key = O=C(Nc1ccc(-n2ncc3c(F)cccc32)cc1)Nc1ccc(Cl)c(C(F)(F)F)c1
Result: 32

###

Listing of recorded IC50 by entry.
- Tested on: A549
- Test Details: Cytotoxicity against human A549 cells after 72 hrs by MTT assay
- Assay type: functional, cell-based
- Condition Details: A549, 72 h
Report the figure in µM without appending any unit label.

Consider the reported IC50 for these compounds:
compound=O=C(Nc1ccc(-n2ncc3c(Br)cccc32)cc1)Nc1ccc(Cl)c(C(F)(F)F)c1 test_value=2.3
compound=COc1cccc2c1cnn2-c1ccc(NC(=O)Nc2ccc(Cl)c(C(F)(F)F)c2)cc1 test_value=3.7
compound=O=C(Nc1ccc(-n2ncc3ccncc32)cc1)Nc1ccc(Cl)c(C(F)(F)F)c1 test_value=10.6
compound=CNc1cccc2c1cnn2-c1ccc(NC(=O)Nc2ccc(Cl)c(C(F)(F)F)c2)cc1 test_value=4.9
compound=O=C(Nc1ccc(-n2ncc3c(Cl)cccc32)cc1)Nc1ccc(Cl)c(C(F)(F)F)c1 test_value=3.1
compound="CNC(=O)c1cc(Oc2ccc(NC(=O)Nc3ccc(Cl)c(C(F)(F)F)c3)cc2)ccn1 [SORAFENIB]" test_value=4
compound=O=C(Nc1ccc(-n2ncc3ccccc32)cc1)Nc1ccc(Cl)c(C(F)(F)F)c1 test_value=9.9
compound=O=C(Nc1ccc(-n2ncc3cnccc32)cc1)Nc1ccc(Cl)c(C(F)(F)F)c1 test_value=3.4
compound=O=C(Nc1ccc(-n2ncc3c(C(F)(F)F)cccc32)cc1)Nc1ccc(C(F)(F)F)cc1 test_value=0.8
compound=O=C(Nc1ccc(-n2ncc3c(C(F)(F)F)cccc32)cc1)Nc1ccc(Cl)c(C(F)(F)F)c1 test_value=3

Query: Which measured IC50 value corresponds to O=C(Nc1ccc(-n2ncc3c(Cl)cccc32)cc1)Nc1ccc(C(F)(F)F)cc1 ?
Result: 6

Query: Now give it for O=C(Nc1ccc(-n2ncc3c(F)cccc32)cc1)Nc1ccc(Cl)c(C(F)(F)F)c1 too.
Result: 3.8

Query: Would you kindly repeat that for Cc1cccc2c1cnn2-c1ccc(NC(=O)Nc2ccc(Cl)c(C(F)(F)F)c2)cc1 ?
Result: 5.5
